test system: Escherichia coli TOP10; assay: shrunken log2 fold change of peptide-encoding DNA abundance (4.5 h post-induction vs induction); higher = less antimicrobial activity (less host growth inhibition); conditions: time post-induction: 4.5 h; library: site-saturation at positions 5, 18, 19, 20;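 note: peptides expressed intracellularly from a pBAD plasmid library in pooled LB shake-flask culture, induced with 0.3% L-arabinose, DNA abundance read by NGS, three biological replicates, DESeq2 with apeglm shrinkage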
// map shrunken log2 fold change to label using range A: < -0.06; range B: ≥ -0.06 and < 0.2; range C: ≥ 0.2

{"constructSequence": "RRIRIRPPRLPRPRPRPYQSPRP", "experimentalTarget": "Escherichia coli TOP10", "className": "range B"}
{"constructSequence": "RRIRFRPPRLPRPRPRPCPWPRP", "experimentalTarget": "Escherichia coli TOP10", "className": "range A"}
{"constructSequence": "RRIRARPPRLPRPRPRPWYVPRP", "experimentalTarget": "Escherichia coli TOP10", "className": "range A"}
{"constructSequence": "RRIRIRPPRLPRPRPRPVVEPRP", "experimentalTarget": "Escherichia coli TOP10", "className": "range A"}
{"constructSequence": "RRIRNRPPRLPRPRPRPVHMPRP", "experimentalTarget": "Escherichia coli TOP10", "className": "range A"}
{"constructSequence": "RRIRSRPPRLPRPRPRPPQKPRP", "experimentalTarget": "Escherichia coli TOP10", "className": "range C"}
{"constructSequence": "RRIRYRPPRLPRPRPRPRPWPRP", "experimentalTarget": "Escherichia coli TOP10", "className": "range C"}
{"constructSequence": "RRIRDRPPRLPRPRPRPRAKPRP", "experimentalTarget": "Escherichia coli TOP10", "className": "range C"}
{"constructSequence": "RRIRHRPPRLPRPRPRPFSGPRP", "experimentalTarget": "Escherichia coli TOP10", "className": "range B"}
{"constructSequence": "RRIRSRPPRLPRPRPRPTQSPRP", "experimentalTarget": "Escherichia coli TOP10", "className": "range C"}
{"constructSequence": "RRIRWRPPRLPRPRPRPDVYPRP", "experimentalTarget": "Escherichia coli TOP10", "className": "range B"}
{"constructSequence": "RRIRGRPPRLPRPRPRPYMPPRP", "experimentalTarget": "Escherichia coli TOP10", "className": "range A"}
{"constructSequence": "RRIRWRPPRLPRPRPRPFSPPRP", "experimentalTarget": "Escherichia coli TOP10", "className": "range B"}
{"constructSequence": "RRIRERPPRLPRPRPRPKPCPRP", "experimentalTarget": "Escherichia coli TOP10", "className": "range B"}
{"constructSequence": "RRIRARPPRLPRPRPRPVGYPRP", "experimentalTarget": "Escherichia coli TOP10", "className": "range C"}
